Molecular target: T1, FisPCP, PCP of the shinorine gene cluster from Fischerella
T1 chain: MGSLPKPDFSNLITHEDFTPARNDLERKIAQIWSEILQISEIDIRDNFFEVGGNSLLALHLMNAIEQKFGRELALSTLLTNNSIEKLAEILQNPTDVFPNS
property_measured: Km (µM)
A number alone suffices; assume µM.

protein	unit_tag	numeric_value
Sfp, phosphopantetheinyl transferase from Bacillus subtilis (protein) MKIYGIYMDRPLSQEENERFMTFISPEKREKCRRFYHKEDAHRTLLGDVLVRSVISRQYQLDKSDIRFSTQEYGKPCIPDLPDAHFNISHSGRWVIGAFDSQPIGIDIEKTKPISLEIAKRFFSKTEYSDLLAKDKDEQTDYFYHLWSMKESFIKQEGKGLSLPLDSFSVRLHQDGQVSIELPDSHSPCYIKTYEVDPGYKMAVCAAHPDFPEDITMVSYEELL	µM	14
MPPT, Sfp-like phosphopantetheinyl transferase (PPTase) from Microcystis aeruginosa NIES843 (protein) MFISTDEVHLYFISLDPSGDRLETLASLLSEDEIIRANRYHFPEHKRRFLVARGCLREILGSYLAISPEKIEFIYSERGKPSINYQLQFNLSHSEEMAICGLTLTARIGVDLEKMRQMKDLDSLTKRFFCAREHELVEKSAEKEKLFFQLWTAKEAYLKAVGTGISGGLDRVEVGLNPLKLDNVAGEWQLWTAAIGDNYRATVVIEGSDRVIKTFGLSDL	µM	7.2
SPPT, Sfp-like phosphopantetheinyl transferase (PPTase) from Synechocystis sp. PCC6803 (protein) MLPQPQIWLCPTDRPLIPGYQALLSSEEMARGERYQRPQDKQRFLTMRLALRILLARQLDCLPQQLQFTYGPQGKPELVDRERRSPWFNVAHSGNYGLIGLSTEGEIGVDLQIMLPKPHYLKLAKRFFAPQEVQQLESLEGEKRTKLFYQLWTAKEAFLKATGKGISGGLNQVIPDENLAKYQYLPDSGDTNHWRLSSQPLLADQGSNDNYWMAIAWCTNEVNQVESNYLPNIQPFQWPRNLDSLP	µM	10

// below: Km requested for another protein
[in] Please list Km recorded for the protein APPT, Sfp-like phosphopantetheinyl transferase (PPTase) from Anabaena sp. PCC7120 (protein) MLQHTWLPKPPNLTLLSDEVHLWRIPLDQPESQLQDLAATLSSDELARANRFYFPEHRRRFTAGRGILRSILGGYLGVEPGQVKFDYESRGKPILGDRFAESGLLFNLSHSQNLALCAVNYTRQIGIDLEYLRPTSDLESLAKRFFLPREYELLRSLPDEQKQKIFFRYWTCKEAYLKATGDGIAKLEEIEIALTPTEPAKLQTAPAWSLLELVPDDNCVAAVAVAGFGWQPKFWHY
[out] 7.1
